# assayText: in vitro
# setupConditions: Wistar Han, rat, lung S9 fraction
half-life at 1 h, 10 µM overview
The reply should be a number in h, with the unit left off.

[in] Which half-life at 1 h, 10 µM value is on record for CC(=O)N[C@H]1CSCCC(=O)N2CN3CN(C2)C(=O)CCSC[C@H](NC(=O)[C@H](CC(=O)O)NC(=O)[C@H](CCC(=O)O)NC(=O)[C@H](CC(C)C)NC(=O)[C@H](Cc2c[nH]c4ccccc24)NC(=O)[C@H](CCC(N)=O)NC1=O)C(=O)N[C@@H](Cc1c[nH]c2ccccc12)C(=O)N[C@@H](CCCNC(=N)N)C(=O)NCC(=O)N[C@@H](Cc1ccc(F)cc1)C(=O)N[C@H](C(N)=O)CSCCC3=O ?
[out] 0.583

[in] Quick check: half-life at 1 h, 10 µM of CC(=O)N[C@H]1CSCCC(=O)N2CN3CN(C2)C(=O)CCSC[C@H](NC(=O)[C@@H](CC(=O)O)NC(=O)[C@H](CCC(=O)O)NC(=O)[C@H](CC(C)C)NC(=O)[C@H](Cc2c[nH]c4ccccc24)NC(=O)[C@@H](CCC(N)=O)NC1=O)C(=O)N[C@@H](Cc1c[nH]c2ccccc12)C(=O)N[C@@H](CCCNC(=N)N)C(=O)NCC(=O)N[C@@H](Cc1ccc(F)cc1)C(=O)N[C@H](C(=O)O)CSCCC3=O ?
[out] 1.12

[in] # query: half-life at 1 h, 10 µM of entry CC(=O)N[C@H]1CSCCC(=O)N2CN3CN(C2)C(=O)CCSC[C@H](NC(=O)[C@H](CC(=O)O)NC(=O)[C@H](CCC(=O)O)NC(=O)[C@H](CC(C)C)NC(=O)[C@H](Cc2cccc4ccccc24)NC(=O)[C@H](CCC(N)=O)NC1=O)C(=O)N[C@@H](Cc1c[nH]c2ccccc12)C(=O)N[C@@H](CCCNC(=N)N(C)C)C(=O)NCC(=O)N[C@@H](Cc1ccc(F)cc1)C(=O)N[C@H](C(N)=O)CSCCC3=O
[out] 1.38

---

Here the recorded MRT is given for each entry.
# assayText: in vivo
# setupConditions: Wistar Han, rat, lung
All answers are understood in h, so give the number only.

CC(=O)N[C@H]1CSCCC(=O)N2CN3CN(C2)C(=O)CCSC[C@H](NC(=O)[C@H](CC(=O)O)NC(=O)[C@H](CCC(N)=O)NC(=O)[C@H](CC(C)(C)C)NC(=O)[C@H](Cc2cccc4ccccc24)NC(=O)[C@H](C)N(C)C1=O)C(=O)N[C@@H](Cc1cn(C)c2ccccc12)C(=O)N[C@@H](CCCNC(=N)N(C)C)C(=O)NCC(=O)N[C@@H](Cc1ccc(F)cc1)C(=O)N[C@H](C(=O)N[C@@H](C)C(N)=O)CSCCC3=O; 2.4
CC(=O)N[C@H]1CSCCC(=O)N2CN3CN(C2)C(=O)CCSC[C@H](NC(=O)[C@H](CC(=O)O)NC(=O)[C@H](CCC(=O)O)NC(=O)[C@H](CC(C)C)NC(=O)[C@H](Cc2c[nH]c4ccccc24)NC(=O)[C@H](CCC(N)=O)NC1=O)C(=O)N[C@@H](Cc1c[nH]c2ccccc12)C(=O)N[C@@H](CCCNC(=N)N)C(=O)NCC(=O)N[C@@H](Cc1ccc(F)cc1)C(=O)N[C@H](C(=O)N[C@@H](C)C(N)=O)CSCCC3=O; 1.2

Note: attention shifts to another entry.
[in] I am curious: what MRT value has been reported for CC(=O)N[C@H]1CSCCC(=O)N2CN3CN(C2)C(=O)CCSC[C@@H]2NC(=O)[C@H](CC(=O)O)NC(=O)[C@H](CCC(=O)O)NC(=O)[C@H](CC(C)C)NC(=O)[C@H](CC/C=C/CC[C@H](NC(=O)[C@H](Cc4c[nH]c5ccccc45)NC2=O)C(=O)NCC(=O)N[C@@H](Cc2ccc(F)cc2)C(=O)N[C@H](C(N)=O)CSCCC3=O)NC(=O)[C@H](CCC(N)=O)NC1=O ?
[out] 0.5
